- PROTOCOL DETAILS: reversal of MRP1-mediated doxorubicin resistance, pilot screen, H69AR cells, doxorubicin co-treatment (AID 601)
- SETTINGS: H69AR cells, CellTiter-Glo, 72 h; compound alone cytotoxicity; at 10 µM
Measured viability accompanies every entry in the list below.
State just the number; it will be interpreted in %.

Use these answered entries as a reference point.
MOLECULE: OCCNCCCCOc1ccccc1F
viability [%]: 102
//
MOLECULE: CCC1Oc2ccc(C)cc2N(CC(=O)N(Cc2cccnc2)Cc2ccc(C)o2)C1=O (configuration not stated)
viability [%]: 74.8
//
MOLECULE: CCn1c(=O)c(=O)[nH]c2cc(C(=O)N3CCN(c4ccccc4F)CC3)ccc21
viability [%]: 98.9
//
MOLECULE: CCN(CC)C(=O)Cn1c(=O)n(Cc2ccccc2Cl)c2c1c(=O)n(C)c(=O)n2C
viability [%]: 93.7
//
MOLECULE: COc1cccc(/C=N/n2c(C)nc3ccccc32)c1OC
viability [%]: 91.9
//
MOLECULE: Cc1cccc(C)c1OCc1nnc2c3cnn(C)c3ncn12
viability [%]: 91.9
//
MOLECULE: O=C(O)CCCC(=O)NCCc1ccncc1
viability [%]: 107
//
MOLECULE: CC(NO)C(C)(C)NO (configuration not stated)
viability [%]: 100
//
MOLECULE: CCCOc1ccc(/C(O)=C2/C(=O)C(=O)N(CCCOC)C2c2ccncc2)cc1 (configuration not stated)
viability [%]: 94.5
//
MOLECULE: COc1ccc(N2CCN(Cc3nc4ccccc4c(=O)[nH]3)CC2)cc1
viability [%]: 94.3

Reported viability, molecule CCOc1cccc(/C(O)=C2/C(=O)C(=O)N(CCN3CCOCC3)C2c2cccnc2)c1 (configuration not stated) : ____
103

Record request: viability value, item O=S(=O)(Nc1nc2ccccc2nc1NCc1ccco1)c1ccc(Cl)cc1
65.3

Consider the molecule shown here: Cc1cc(C(=O)NCc2ccc(S(N)(=O)=O)cc2)cs1 What is its recorded viability?
104

Would you mind telling me what viability value was observed for N#CC1=C(SCC(=O)c2cc3ccccc3oc2=O)NC(=O)C(C#N)C12CCCC2 (configuration not stated) ?
86.5

viability lookup needed for O=C(O)c1cccc(S(=O)(=O)N2CCOCC2)c1 , thanks.
98.9

Entry under review: O=C(Cn1nnc(-c2ccccc2)n1)Nc1ccccc1N1CCOCC1 . Reported viability?
93.3

Look at this molecule and give its reported viability. C=CCOc1nc2c(c(=O)n(C)c(=O)n2C)n1Cc1c(Cl)cccc1Cl
80.4

// query viability value for entry COc1cc(OC)c(NC(=O)c2ccco2)cc1Cl
84.7

---

- PROTOCOL DETAILS: HUVEC growth inhibition – cell-based, human, primary screen (AID 575);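 also: 100% = median of untreated cell wells with 0.1% DMSO on each plate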
- SETTINGS: HUVEC proliferation, CellTiter-Glo luminescence, 72 h; at 10 µM; stronger effect = lower value
Reported viability values follow for various molecules
Give the value in % but do not write % after it.

Some entries whose results are on file:
MOLECULE: CCc1cc(=O)oc2c(CN3CCN(C)CC3)c(O)c(Cl)cc12
viability [%]: 92.6
//
MOLECULE: CC(=O)NC1(c2nnnn2CCOC(=O)Nc2ccc(Cl)cc2)CCCCC1
viability [%]: 98.5
//
MOLECULE: c1ccc(-c2nnc(CN3CCC4(CC3)OCCO4)o2)cc1
viability [%]: 96.9
//
MOLECULE: COC(=O)c1[nH]c2cc(OC)ccc2c1NC(=O)CCN1CCCCC1
viability [%]: 116
//
MOLECULE: O=C(COC(=O)C1CC(=O)N(c2ccccc2)C1)c1ccccc1 (stereo unspecified)
viability [%]: 101

// viability lookup, key: Nc1c(C(=O)NCCc2ccccc2)nnn1Cc1ccccc1
89
